- Test system: C18-1/EREBP1
- protocol_summary: Northern analysis of mRNA accumulation in cultured tobacco cells
- Assay type: cell-based
- condition_label: Nicotiana tabacum; tobacco cells, SA 0.1 μM to 2 mM, 2-2.5 hr; read-out: concentration of SA required for half of the maximum level of C18-1/EREBP1 expression
property_measured: EC50

# get_value(readout='EC50', item= `O=C(O)c1ccccc1O` )
100 to 150 µM
